target: hSSB2 (C-terminally His-tagged) (Homo sapiens, UniProt Q96AH0 1-204); assay: fluorescence anisotropy; no MgCl2; Hill n 2.7; Anisotropy: standard LLPS buffer without MgCl2 (50 mM KCl standard), 25 C, 10 nM probe; EMSA: standard LLPS buffer (50 mM KCl, 10 mM MgCl2), 50 nM probe, 1% agarose; buffer species and pH not in the material; conditions: protein: recombinant; tags: C-terminal His; label: 3'-fluorescein; single strand
Sequence (Q96AH0 whole entry): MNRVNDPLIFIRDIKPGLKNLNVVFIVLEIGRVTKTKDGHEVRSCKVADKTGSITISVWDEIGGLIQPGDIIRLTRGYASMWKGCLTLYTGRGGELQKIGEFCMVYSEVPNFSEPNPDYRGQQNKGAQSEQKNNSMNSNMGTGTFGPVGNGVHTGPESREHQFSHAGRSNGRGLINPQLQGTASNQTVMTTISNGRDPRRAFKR
MEASURE NAME: Kd

-- ask Report Kd for ATTTTTGCGGATGGCTTAGAGCTTAATTGCGCAACG (ssDNA) [ss36 DNA]
-- reply 530 nM
